Each entry below carries its recorded TGI.
- Test system: T-47D breast
- test-details: NCI tumour cell line growth inhibition, 48 h
readout-kind: TGI (µM)

> print(dat)
                                   molecule  bound.type  result.number
1  COc1cc(NC(=O)CSc2nc3ccc(C)cc3c(=O)n2Cc2ccccc2)cc(OC)c1OC           =           66.9
2  CC(C)COCC(CN(Cc1ccccc1)c1ccccc1)N1CCCC1 (centres undefined)           =           6.49
3    Cc1c(Cl)c(S(N)(=O)=O)cc2c1NC=NS2(=O)=O           >            100
4       c1ccc2c(c1)cc1c3[nH]c4ccccc4c3ccn21           >             10

---

- Tested on: DU-145 prostate
- test-details: NCI tumour cell line growth inhibition, 48 h
readout-kind: GI50

> print(dat)
                         chemical.structure   result
1                           Clc1ccc2nnnn2n1  2310 nM
2  CCN1Cc2c(ccc(F)c2C#N)O[C@@H](C)CNC(=O)c2c(N)nn3ccc1nc23  2090 nM
3  CNCCNc1c2c(c(NCCNC)c3[nH]ccc13)C(=O)c1ccccc1C2=O   526 nM

---

Each entry below carries its recorded TGI.
- System: RPMI-8226 leukemia
- test-details: NCI tumour cell line growth inhibition, 48 h
readout-kind: TGI

> print(dat)
                                   compound     measured.target     result
1           C/C(=N\NC(=O)c1ccncc1)c1ccccc1F  RPMI-8226 leukemia    > 10 µM
2  Cc1cc(Cc2cc(C)cc(C(C)(C)C)c2O)c(O)c(Cc2cc(C)cc(C(C)(C)C)c2O)c1  RPMI-8226 leukemia  > 20.4 µM
3  Cc1ccc(C2SC(N)=Nc3c2c(C)nn3C(=O)c2ccccc2O)cc1 (stereo unspecified)  RPMI-8226 leukemia    > 10 µM
4  CCN1C(=O)N(c2ccccc2)C2NC(=S)N(/N=C/C=C/c3ccccc3)C21 (stereo unspecified)  RPMI-8226 leukemia   > 100 µM
5  N#CCCN(c1ccc(C=Nc2ccccc2Cl)cc1)S(=O)(=O)c1ccccc1  RPMI-8226 leukemia   > 100 µM
6  O=C1C2C(c3ccccc3)NC(c3ccccc3)C1C(c1ccccc1)NC2c1ccccc1 (stereo unspecified)  RPMI-8226 leukemia   > 100 µM

---

- Test system: ACHN renal
- test-details: NCI tumour cell line growth inhibition, 48 h
Each entry below carries its recorded TGI.

compound	measured-target	bound-type	TGI, µM
CN(C)CCNC(=O)c1cccc2[nH]c(-c3cccnc3)nc12	ACHN renal	=	37
CC1OC(OC2C(OC(=O)[C@@H]3CC(C)(C)C[C@@H]4C5=CC[C@@H]6[C@@]7(C)C[C@H](O)[C@H](OC8OC(CO)C(O)C(O)C8O)[C@@](C)(CO)C7[C@H](O)C[C@@]6(C)[C@]5(C)C[C@@H](O)[C@H]43)OCC(O)C2O)C(O)C(O)C1O (stereo not given in full)	ACHN renal	>	15
COc1ccc(/C=C(\C#N)n2nnc3ccccc32)cc1	ACHN renal	=	17.2
Cn1c(Cl)cn2c3nc4ccccc4nc3c(=O)c(C#N)c12	ACHN renal	>	100
O=C(NNCc1ccco1)c1cc2ccccc2[nH]1	ACHN renal	>	100
COc1cc(/C=C/C(=O)c2c(C)nc3ccccc3c2/C=C/c2ccc(C)cc2)cc(OC)c1OC	ACHN renal	=	4.6
O=Cc1ccccc1B(O)O	ACHN renal	>	100
COc1c(Br)cc(/C=C(\C#N)c2cccnc2)cc1Br	ACHN renal	>	100
C[N+]1(C)C/C(=C\c2ccccc2)C(=O)/C(=C/c2ccccc2)C1	ACHN renal	>	100
O=C(c1ccccc1)C(Br)C(Br)c1cccc([N+](=O)[O-])c1 (stereo not given)	ACHN renal	=	2.77

---

Each entry below carries its recorded TGI.
- Test system: SF-539 CNS
- test-details: NCI tumour cell line growth inhibition, 48 h
readout-kind: TGI

molecule	result
C/C=C1/CCC2c3[nH]c4ccccc4c3CCN2C1 (stereo unspecified)	> 100 µM
CC1(C)OC(CP(c2ccccc2)c2ccccc2)C(CP(c2ccccc2)c2ccccc2)O1 (stereo unspecified)	> 100 µM
COCn1cnc2c(=O)n(-c3ccc(OC)cc3)c(=S)n(-c3ccc(OC)cc3)c21	> 100 µM
C[C@]12C[C@@H](c3ccccc3)Nc3ccccc3N1C(c1ccccc1)=NO2	> 100 µM
O=C(O)CCC(NC(=O)c1ccccc1)C(=O)O (stereo unspecified)	> 100 µM
Nc1ncnc2c1ncn2C1OC(CO)C(O)C(O)C1O (stereo unspecified)	> 100 µM
COc1ccc(C2=NN(C(N)=S)C(c3ccccc3)C2)cc1 (stereo unspecified)	> 100 µM
Nc1[nH]c(=S)c2c(N)n[nH]c2c1C(=O)Nc1ccccc1	> 100 µM
Cc1ccc(C(=O)Nc2ccc(CP(=O)(O)O)cc2CP(=O)(O)O)cc1NC(=O)c1cccc(NC(=O)Nc2cccc(C(=O)Nc3cc(C(=O)Nc4ccc(CP(=O)(O)O)cc4CP(=O)(O)O)ccc3C)c2)c1	> 100 µM
COc1ccc(-n2cc(-c3cc(OC)c(OC)c(OC)c3)nc2SCc2ccccc2)cc1OC	> 100 µM
O=C(NNCc1ccco1)c1cc2ccccc2[nH]1	> 84.4 µM
Oc1ccc(Cc2nccc3cc(O)c(O)cc23)cc1O	> 100 µM
N=[N+]=CC(=O)CCC(NC(=O)C(CCC(=O)C=[N+]=N)NC(=O)CCC(N)C(=O)O)C(=O)O (stereo unspecified)	> 100 µM
C=CCN1C(=O)/C(=C/c2ccc(C)cc2)NC1=S	> 100 µM
Cc1ccc2c(c1)CC1(Cc3c(C)cccc3C1=O)C2=O (stereo unspecified)	> 100 µM
Cc1ccc(N2CCC3(CC2)OCCO3)cc1	> 100 µM
C/C(=N\NC(=O)c1ccncc1)c1ccccc1F	> 10 µM
COc1ccccc1N1CCN(CCc2c[nH]c3cc4c(cc23)OCO4)CC1	> 100 µM
O=C(c1ccccc1)N1OCCC1Nc1ccc(Br)cc1 (stereo unspecified)	> 10 µM
O=C(Nc1ccc2[nH]c(=S)sc2c1)Nc1ccccc1F	> 100 µM
CC1=NN(C(=O)CC(=O)NC(=O)CC(=O)Nc2ccccc2F)C(=O)C1N=Nc1ccc([N+](=O)[O-])cc1 (stereo unspecified)	> 100 µM

---

Each entry below carries its recorded TGI.
- Tested on: UO-31 renal
- test-details: NCI tumour cell line growth inhibition, 48 h

molecule	TGI
Cn1c(Cl)cn2c3nc4ccccc4nc3c(=O)c(C#N)c12	> 100 µM
CC(C)C(Sc1nc(-c2ccccc2)c(-c2ccccc2)[nH]1)C(=O)NN (centres undefined)	> 100 µM
COc1cc(/C=N/NC(=O)c2cnn3c2NC(c2ccccc2)C3)ccc1Oc1ccccc1 (centres undefined)	12.2 µM
COc1ccc(S(=O)(=O)Nc2cc(/C=C\c3cc(OC)c(OC)c(OC)c3)ccc2OC)cc1	7.48 µM
C=CC[C@@]1([C@H](C=C)COCc2ccc(OC)cc2)CC[C@]2(C)OC(C)(C)[C@@H](c3ccccc3)N2C1=S	> 100 µM
Fc1ccccc1C1SCc2nc3ccccc3n21 (centres undefined)	> 100 µM
Cc1ccc(C(=O)Nc2ccc(CP(=O)(O)O)cc2CP(=O)(O)O)cc1NC(=O)c1cccc(NC(=O)Nc2cccc(C(=O)Nc3cc(C(=O)Nc4ccc(CP(=O)(O)O)cc4CP(=O)(O)O)ccc3C)c2)c1	> 100 µM
Nc1nc2n[nH]nc2c(=O)[nH]1	29.3 µM
CN1CC[C@]2(C)c3cc(O)ccc3CC3CCCC1C32C (some centres undefined)	> 100 µM
Cc1ccc(N2CCC3(CC2)OCCO3)cc1	> 100 µM
S=C1CSc2c(ccc3ccccc23)N1	> 100 µM
N#CC1=C(N)Oc2c(sc3c(Br)cccc23)C1c1ccc(Br)cc1 (centres undefined)	11.8 µM
COc1cc2c(cc1OCCCCCOc1ccc(-n3c(C)nc4ccccc4c3=O)cc1)N=C[C@@H]1CCCN1C2=O	1.71 µM
C/C(=N\NC(=S)N1CCN(C)CC1)c1nc2ncccc2[nH]1	> 100 µM

---

- System: OVCAR-8 ovarian
- test-details: NCI tumour cell line growth inhibition, 48 h
Each entry below carries its recorded TGI.
readout-kind: TGI

> print(dat)
                                    compound  readout.kind    result
 1  CCN(CC)c1c(-c2c(N(CC)CC)c(OC(C)=O)c3sccn3c2=O)c(=O)n2ccsc2c1OC(C)=O           TGI  > 100 µM
 2  O=[N+]([O-])c1cc(C2SCc3nc4ccccc4n32)ccc1Cl (stereo not drawn)           TGI  > 100 µM
 3  COc1ccc(NC(=O)/C(=N/NC(N)=S)C2C(=O)NC(=S)NC2=O)c(OC)c1           TGI  > 100 µM
 4  COc1ccc(N2C(=O)C3c4[nH]c5ccccc5c4C4CC(C)CC(C)C4C3C2=O)cc1 (stereo not drawn)           TGI  > 100 µM
 5  O=C1C=CC2(O)OCCN(CCO)C2=C1 (stereo not drawn) (tested in a mixture with another compound)           TGI  > 100 µM
 6  Cc1cc(=O)[nH]c2cc3c(c4c(n3Cc3ccc(Cl)cc3Cl)CC(C)(C)CC4=O)c(O)c12           TGI  > 100 µM
 7       c1ccc2c(c1)cc1c3[nH]c4ccccc4c3ccn21           TGI   > 10 µM
 8        CC(C)=c1sc(=C(C)C)c2c1=NC(C)(C)N=2           TGI  > 100 µM
 9  Nc1c(C(=O)Nc2ccc(C3=NCCN3)cc2)cccc1C(=O)Nc1ccc(C2=NCCN2)cc1           TGI  > 100 µM
10  Nc1ccc(S(=O)(=O)Nc2ccc(Nc3c4ccccc4nc4ccccc34)cc2)cc1           TGI     10 µM
11  N#CCCN(c1ccc(C=Nc2ccccc2Cl)cc1)S(=O)(=O)c1ccccc1           TGI  > 100 µM
12  O=C1C2C(c3ccccc3)NC(c3ccccc3)C1C(c1ccccc1)NC2c1ccccc1 (stereo not drawn)           TGI  > 100 µM
13  CCC[CH2][Sn]([CH2]CCC)([CH2]CCC)[O]C(=O)c1ccc(Cl)cc1Cl           TGI  0.373 µM
14  O=S(Nc1ccccc1)c1ccc(Cl)c(Cl)c1 (stereo not drawn)           TGI  > 100 µM
15                  Nc1nc2n[nH]nc2c(=O)[nH]1           TGI  > 100 µM
16  COc1ccc(/C=C2\N=C(SC)N(CN3CCCCC3)C2=O)cc1           TGI  > 100 µM
17  CC(C)(C)NCC(O)c1ccc(O)c(CO)n1 (stereo not drawn)           TGI  > 100 µM
18    Cc1ccc(N=Nc2ccc(N)cc2C)c(S(N)(=O)=O)c1           TGI  > 100 µM
19  CC1=C(C(=O)N(C(C)C)C(C)C)CC(C(=O)N(C(C)C)C(C)C)=C(C)N1           TGI  > 100 µM
20  COc1cc([C@H]2CC(=O)C[C@H](c3cc(OC)c(OC)c(OC)c3)C23C(=O)c2ccccc2C3=O)cc(OC)c1OC           TGI  > 100 µM
21                          CN(C)C=[N+]=[N-]           TGI  > 100 µM
22  OC(CNCC1CCCO1)Cn1c2ccc(Cl)cc2c2cc(Cl)ccc21 (stereo not drawn)           TGI   4.22 µM
23        Cc1cc2[nH]c(=O)c3c4ccccc4cn3c2cc1C           TGI   25.9 µM
